Test system: P. falciparum parasites
experimental.details: Parasite proliferation, [^3H]hypoxanthine incorporation assay, 48 hr
Assay type: cell-based
particulars: Plasmodium falciparum; mean ± SEM, number of independent experiments in parentheses; read-out: IC50 for inhibition of parasite proliferation
readout.kind: IC50 (nM)
Could you give me the number in nM? Just the number is fine.

Examples with their reported IC50 follow.
q: Report IC50 for C[C@H]1CCc2c([nH]c3ccccc23)[C@@]2(N1)C(=O)Nc1ccc(Br)cc12 [NITD139] tested on P. falciparum parasites.
a: 4

q: Report IC50 for C[C@@H]1CCc2c([nH]c3ccccc23)[C@]2(N1)C(=O)Nc1ccc(Br)cc12 [NITD138] tested on P. falciparum parasites.
a: 2300

q: Report IC50 for C[C@@H]1Cc2c([nH]c3cc(F)c(F)cc23)[C@]2(N1)C(=O)Nc1ccc(Cl)cc12 [NITD247] tested on P. falciparum parasites.
a: 41.6

Proceeding to the next compound to report its IC50.
q: Report IC50 for C[C@H]1Cc2c([nH]c3cc(F)c(F)cc23)[C@@]2(N1)C(=O)Nc1ccc(Cl)cc12 [NITD246] tested on P. falciparum parasites.
a: 0.12
